solubility kinetic overview
conditions: buffer; pH 7.4; 200.0 µM

Use the examples below as a reference point.
> print(dat)
                               compound              metric        result
1  Cc1cccc(NC(=O)CCS(=O)(=O)c2ccccc2)n1  solubility kinetic  > 45.7 µg/mL
2     N#CC1CCN(c2ncccc2[N+](=O)[O-])CC1  solubility kinetic  > 34.8 µg/mL
3       Cc1ccc(C)c(S(=O)(=O)N2CCNCC2)c1  solubility kinetic  > 38.2 µg/mL

Incoming: Given the entry CCOC(=O)C1=C(COC(=O)COc2ccccc2C=O)NC(=O)NC1C (centres undefined) , report its measured solubility kinetic.
Outgoing: > 56.5 µg/mL

Incoming: Given the entry CCOc1c(Nc2cccc(Cl)c2)c(=O)c1=O , report its measured solubility kinetic.
Outgoing: > 37.8 µg/mL

Incoming: Given the entry O=c1c(-c2ccccc2)cnc2n1CCS2 , report its measured solubility kinetic.
Outgoing: > 34.5 µg/mL

Incoming: Given the entry O=C(O)CCN1C(=O)c2ccc(NC(=O)c3ccco3)cc2C1=O , report its measured solubility kinetic.
Outgoing: > 49.2 µg/mL

Incoming: Given the entry CCC(CO)n1c(=S)[nH]c2cc(OC)c(OC)cc2c1=O (centres undefined) , report its measured solubility kinetic.
Outgoing: > 46.6 µg/mL

Incoming: Given the entry O=C(COc1ccccc1N1C(=O)C2C3C=CC(C3)C2C1=O)c1ccccc1 (centres undefined) , report its measured solubility kinetic.
Outgoing: > 56 µg/mL

Incoming: Given the entry Cc1cc(C)c(NC(N)=S)c(C)c1 , report its measured solubility kinetic.
Outgoing: > 29.1 µg/mL
